Quick record: MIC, Escherichia coli.
parameter_measured: MIC (µg/mL)

(1) CN[C@@H]1[C@@H](O)[C@@H](O[C@@H]2[C@@H](O)[C@H](O[C@H]3O[C@H](CN)[C@@H](O)[C@H](O)[C@H]3N)[C@@H](N)C[C@H]2N)OC[C@]1(C)O [JI-20A]
(2) CN[C@@H]1[C@@H](O)[C@@H](O[C@@H]2[C@@H](O)[C@H](O[C@H]3O[C@H](CN)[C@@H](O)C[C@H]3N)[C@@H](N)C[C@H]2N)OC[C@]1(C)O [3'-deoxy-JI-20A]
Between 1 and 2 , which one shows the smaller MIC number? Indicate which entry you chose by stating its label. 2

These entries and their values trace back to patent US4063015A.
